Target: Histone-lysine N-methyltransferase EHMT2 (Homo sapiens, UniProt Q96KQ7)
Sequence (Q96KQ7 whole entry): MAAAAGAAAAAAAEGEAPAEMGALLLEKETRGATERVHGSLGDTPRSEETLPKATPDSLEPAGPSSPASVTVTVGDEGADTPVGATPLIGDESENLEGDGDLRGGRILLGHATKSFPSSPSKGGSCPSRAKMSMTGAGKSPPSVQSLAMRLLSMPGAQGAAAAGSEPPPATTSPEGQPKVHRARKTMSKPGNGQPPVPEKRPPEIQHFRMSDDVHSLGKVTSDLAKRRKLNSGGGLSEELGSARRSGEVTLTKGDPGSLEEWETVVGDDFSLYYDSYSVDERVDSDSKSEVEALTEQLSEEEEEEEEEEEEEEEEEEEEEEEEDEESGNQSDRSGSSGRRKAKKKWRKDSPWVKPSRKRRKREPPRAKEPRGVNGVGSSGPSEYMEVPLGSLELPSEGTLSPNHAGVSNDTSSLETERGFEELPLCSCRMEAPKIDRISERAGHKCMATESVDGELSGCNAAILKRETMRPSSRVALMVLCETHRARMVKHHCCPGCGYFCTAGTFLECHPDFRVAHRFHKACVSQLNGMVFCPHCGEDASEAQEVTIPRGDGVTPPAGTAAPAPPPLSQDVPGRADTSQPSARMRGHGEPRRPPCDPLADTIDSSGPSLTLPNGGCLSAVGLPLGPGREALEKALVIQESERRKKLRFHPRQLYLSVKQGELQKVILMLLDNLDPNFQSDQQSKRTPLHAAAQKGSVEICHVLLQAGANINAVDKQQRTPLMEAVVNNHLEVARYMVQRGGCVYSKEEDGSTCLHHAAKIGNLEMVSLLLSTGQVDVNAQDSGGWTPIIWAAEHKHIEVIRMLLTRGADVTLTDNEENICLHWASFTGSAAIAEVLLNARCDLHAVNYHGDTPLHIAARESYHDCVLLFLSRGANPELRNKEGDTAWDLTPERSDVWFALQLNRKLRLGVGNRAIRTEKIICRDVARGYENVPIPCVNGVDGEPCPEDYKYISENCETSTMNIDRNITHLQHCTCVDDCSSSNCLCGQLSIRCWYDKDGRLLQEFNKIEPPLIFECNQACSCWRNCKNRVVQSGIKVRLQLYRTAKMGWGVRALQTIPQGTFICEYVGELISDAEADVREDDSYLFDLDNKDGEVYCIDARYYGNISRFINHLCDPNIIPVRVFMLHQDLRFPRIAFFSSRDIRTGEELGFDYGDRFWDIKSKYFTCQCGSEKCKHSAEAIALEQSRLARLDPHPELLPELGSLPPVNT
A compilation of IC50 values for Histone-lysine N-methyltransferase EHMT2 (Homo sapiens, UniProt Q96KQ7) from the published literature.

| chemical.structure | IC50 / µM |
| --- | --- |
| CNc1cc(C)nc(Nc2ccc(C)c(C3=CCNCCC3)c2)n1 | 0.0142 |
| O=C(O)c1cccc(NCc2cccc(-n3ccc4c(-c5ccc(C(F)(F)F)cc5)cccc43)c2)c1 | 26.4 |
| Nc1ncnc2c1ncn2[C@@H]1O[C@H](CCCc2ccccc2)[C@@H](O)[C@H]1O | 190 |
| COc1cc2nc3c(c(NCC4CN(c5ccccc5F)C4)c2cc1OC)CCC3 | 1.74 |
| Nc1ncnc2c1ncn2[C@@H]1O[C@H](C[C@@H](N)CC2CCCC2)[C@@H](O)[C@H]1O | 191 |

---

Target: Histone-lysine N-methyltransferase EHMT2 (Homo sapiens)
Sequence (Q96KQ7 whole entry): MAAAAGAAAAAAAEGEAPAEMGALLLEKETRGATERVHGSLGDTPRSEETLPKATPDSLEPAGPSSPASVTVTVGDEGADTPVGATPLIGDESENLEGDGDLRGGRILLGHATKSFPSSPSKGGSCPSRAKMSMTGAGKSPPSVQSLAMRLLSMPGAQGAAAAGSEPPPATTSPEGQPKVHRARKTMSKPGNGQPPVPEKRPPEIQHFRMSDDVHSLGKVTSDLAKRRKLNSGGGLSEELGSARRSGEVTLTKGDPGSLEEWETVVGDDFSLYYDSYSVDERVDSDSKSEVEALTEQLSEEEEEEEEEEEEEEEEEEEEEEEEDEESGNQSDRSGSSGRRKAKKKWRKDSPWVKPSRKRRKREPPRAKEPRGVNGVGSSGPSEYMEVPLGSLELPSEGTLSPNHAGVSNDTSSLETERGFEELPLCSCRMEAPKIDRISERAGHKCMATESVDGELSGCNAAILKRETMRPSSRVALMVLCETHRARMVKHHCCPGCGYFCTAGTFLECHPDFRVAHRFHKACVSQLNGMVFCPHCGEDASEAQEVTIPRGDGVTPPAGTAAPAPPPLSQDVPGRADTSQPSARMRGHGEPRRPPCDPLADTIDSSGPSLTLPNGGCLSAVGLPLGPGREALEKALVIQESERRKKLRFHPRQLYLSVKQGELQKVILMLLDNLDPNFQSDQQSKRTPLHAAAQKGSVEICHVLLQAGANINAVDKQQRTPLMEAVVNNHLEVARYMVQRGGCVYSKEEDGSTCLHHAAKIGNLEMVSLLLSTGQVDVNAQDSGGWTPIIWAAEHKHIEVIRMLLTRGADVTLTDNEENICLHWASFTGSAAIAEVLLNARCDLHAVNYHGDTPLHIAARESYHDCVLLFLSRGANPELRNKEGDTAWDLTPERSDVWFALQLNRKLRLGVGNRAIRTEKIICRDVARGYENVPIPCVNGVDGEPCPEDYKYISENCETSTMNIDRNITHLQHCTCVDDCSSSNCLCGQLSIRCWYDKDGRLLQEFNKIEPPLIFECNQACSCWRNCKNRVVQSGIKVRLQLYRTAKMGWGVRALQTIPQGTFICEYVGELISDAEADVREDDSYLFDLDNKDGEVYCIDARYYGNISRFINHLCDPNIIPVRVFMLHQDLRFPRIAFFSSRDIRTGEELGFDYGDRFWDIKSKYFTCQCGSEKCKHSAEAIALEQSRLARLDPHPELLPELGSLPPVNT
pIC50: −log10 of the molar value.
Please find below pIC50 data on Histone-lysine N-methyltransferase EHMT2 (Homo sapiens) compiled from the literature.

| chemical.structure | target.of.assay | pIC50 |
| --- | --- | --- |
| CNc1cc(C)nc(Nc2ccc(OC)c(OCCCN3CCCC3)c2)n1 | Histone-lysine N-methyltransferase EHMT2 (Homo sapiens) | 7.77 |
| CN(C)c1cc(NCCCN2CCCC2)c2c3c(onc13)-c1ccccc1C2=O | Histone-lysine N-methyltransferase EHMT2 (Homo sapiens) | 5.53 |
| CN(C)CCNc1cc(N(C)C)c2noc3c2c1C(=O)c1ccccc1-3 | Histone-lysine N-methyltransferase EHMT2 (Homo sapiens) | 5.46 |
| COc1cc2nc(C)cc(NCC3CCN(c4ncc(C(=O)NO)cn4)CC3)c2cc1OC | Histone-lysine N-methyltransferase EHMT2 (Homo sapiens) | 8.14 |
| CN1CCN(c2cc(NCCN3CCCCC3)c3c4c(onc24)-c2ccccc2C3=O)CC1 | Histone-lysine N-methyltransferase EHMT2 (Homo sapiens) | 5.73 |

---

Several reports have described IC50 for Histone-lysine N-methyltransferase EHMT2 (Homo sapiens); a selection of those results is presented here.
property.label: IC50 (µM)

| compound | property.label | limit.sign | observed.measurement |
| --- | --- | --- | --- |
| CC(CNC(=O)Nc1ccc(C(C)(C)C)cc1)CN(C)C[C@H]1O[C@@H](n2cnc3c(N)ncnc32)[C@H](O)[C@@H]1O (some centres undefined) | IC50 | > | 50 |
| CCN1CC=C(c2cc(Nc3nc(C)cc(NC)n3)ccc2OC)CCC1 | IC50 | = | 0.0105 |
| CN1CCN(c2cc(NCCN3CCCC3)c3c4c(onc24)-c2ccccc2C3=O)CC1 | IC50 | = | 6.89 |
| COc1cc2nc(N3CCCCC3)cc(NCC3CCN(c4ncc(C(=O)NO)cn4)CC3)c2cc1OC | IC50 | > | 10 |
| O=C1c2ccccc2-c2onc3c(N4CCCCC4)cc(NCCN4CCCC4)c1c23 | IC50 | = | 2.18 |
| COc1cc2nc(-c3ccccc3)cc(NCC3CCN(c4ncc(C(=O)NO)cn4)CC3)c2cc1OC | IC50 | > | 10 |
| CN(C)CCNc1cc(N2CCN(C)CC2)c2noc3c2c1C(=O)c1ccccc1-3 | IC50 | = | 4.84 |
| COc1cc2c(NCc3ccc([C@H]4CC[C@H](C(=O)NO)CC4)cc3)cc(-c3ccc(C)o3)nc2cc1OCCCN1CCCC1 | IC50 | = | 1.65 |
| CNc1cc(C)nc(Nc2ccc(OC)c(C3=CCN(C4CCC4)CCC3)c2)n1 | IC50 | = | 0.145 |
| COc1cc2nc(-c3ccc(C)o3)cc(NCc3ccc(C(=O)NO)cn3)c2cc1OC | IC50 | > | 10 |
| COc1ccc(Nc2cc(N3CCN(C)CC3)c3noc4c3c2C(=O)c2ccccc2-4)cc1 | IC50 | = | 39.2 |
| CN1C(=O)[C@@H]2C[C@@]3([C@@]45C[C@H]6C(=O)N(C)[C@@H](CO)C(=O)N6[C@@H]4Nc4ccccc45)c4ccccc4N[C@H]3N2C(=O)[C@@H]1CO | IC50 | > | 50 |
| N=C(N)NCCC[C@H](NC(=O)[C@H](CCCCN)NC(=O)[C@@H]1CCCN1C(=O)Cc1ccc(O)cc1)C(N)=O | IC50 | > | 100 |
| Nc1ncnc2c1ncn2[C@@H]1O[C@H](C[C@@H](N)CC2CC2)[C@@H](O)[C@H]1O | IC50 | = | 39.6 |
| CN1CCCN(c2cc(NCCN3CCCCC3)c3c4c(onc24)-c2ccccc2C3=O)CC1 | IC50 | = | 2.49 |
| COc1cc2c(NCC3CCN(C4CCC(C(=O)NO)CC4)CC3)cc(-c3ccc(C)o3)nc2cc1OCCCN1CCCC1 (centres undefined) | IC50 | = | 0.038 |
| CN(C)c1cc(NCCN2CCCC2)c2c3c(onc13)-c1ccccc1C2=O | IC50 | = | 3.87 |
| CNc1cc(C)nc(Nc2ccc(Cl)c(C3=CCNCCC3)c2)n1 | IC50 | = | 0.00632 |
| CCN1CCN(c2cc(NCCN3CCCC3)c3c4c(onc24)-c2ccccc2C3=O)CC1 | IC50 | = | 3.48 |
